Target Or Test System: CDK2/Cyclin E1 (Homo sapiens, UniProt P24941)
Experimental Details: CDK2/Cyclin E1 Caliper LabChip EZ Reader mobility shift assay
Type: biochemical
Set-up: purchased Eurofins 14-475
Measurement Context: read-out: Caliper Assay (CDK2/CCNE1): IC50
pIC50: −log10 of the molar value.
Value Type: pIC50

Per the records, this compound ( CNC(=O)[C@@H](NC(=O)[C@@H]1CN(C(=O)c2cnn(Cc3ccccc3)c2)CC12CN(C(=O)Cc1ccccc1)C2)[C@@H](C)OCc1ccccc1 [I-25A] ) has pIC50 equal to < 5.00

Reported pIC50 for C[C@@H](OCC1CCCCC1)[C@H](NC(=O)C1CN(C(=O)c2cnn(Cc3ccccc3)c2)CC12CN(C(=O)[C@H]1CC1(C)C)C2)C(=O)N1CCOCC1 (stereo partly drawn) [I-152 mixture] was ≥ 8.00

Form: compound = C[C@@H]1C[C@H](C)CN(C(=O)[C@@H](NC(=O)C2CN(C(=O)c3cnn(Cc4ccccc4)c3)CC23CN(C(=O)[C@H]2CC2(C)C)C3)[C@@H](C)OCc2ccccc2)C1 (stereo partly drawn) ; pIC50 = 7.00 to 8.00

Briefly, pIC50 measured for CNC(=O)[C@@H](NC(=O)[C@H]1CN(C(=O)c2scnc2C2CCCC2)CC12CN(C(=O)[C@H]1CC1(C)C)C2)[C@@H](C)OCC1CCCCC1 [I-224A] : 5.00 to 6.00

pIC50 reported for this compound C[C@@H](OCc1ccccc1)[C@H](NC(=O)C1CN(C(=O)c2cnn(Cc3ccccc3)c2)CC12CN(C(=O)[C@H]1CC1(C)C)C2)C(=O)NCCC(=O)O (stereo partly drawn) : 6.00 to 7.00

Record CNC(=O)[C@@H](NC(=O)[C@@H]1CN(C(=O)c2cncs2)CC12CN(C(=O)[C@H]1CC1(C)C)C2)[C@@H](C)OC1CCCCC1 . Reported pIC50: 6.00 to 7.00

// pIC50 lookup, compound = CC1(C)C[C@@H]1C(=O)N1CC2(CN(C(=O)c3cnn(Cc4ccccc4)c3)C[C@H]2C(=O)NCc2ccc(C3CCCCC3)nn2)C1 , result: 6.00 to 7.00

Input CC1(C)C[C@@H]1C(=O)N1CC2(CN(C(=O)c3cnn(Cc4ccccc4)c3)C[C@@H]2C(=O)NCc2nnc[nH]2)C1 [I-191B] . Output pIC50: < 5.00

pIC50 recorded for this compound, CNC(=O)[C@@H](NC(=O)[C@@H]1CN(Cc2cnn(C)c2)CC12CN(C(=O)[C@H]1CC1(C)C)C2)[C@@H](C)OCc1ccccc1 [I-47A] , is < 5.00

The reported value for CNC(=O)[C@@H](NC(=O)[C@@H]1CN(C(=O)c2cnn(Cc3ccccc3)c2)CC12CN(C(=O)C1(CC3CC3)CC1)C2)[C@@H](C)OCc1ccccc1 [I-116A] in terms of pIC50 is < 5.00

Reported pIC50 for CNC(=O)[C@@H](NC(=O)[C@H]1CN(Cc2cncs2)CC12CN(C(=O)[C@H]1CC1(C)C)C2)[C@@H](C)OCc1ccccc1 [I-51B] was < 5.00

pIC50 recorded for this compound, CNC(=O)[C@@H](NC(=O)C1CN(C(=O)c2cnn(Cc3ccncc3)c2)CC12CN(C(=O)C1CC1(C)C)C2)[C@@H](C)OCc1ccccc1 (stereo partly drawn) , is 6.00 to 7.00
